# Tested on: human MT-2 T-cells
# condition.details: human
reported.property: CC50 (µM)
Numeric answer only, unit µM assumed.

Previously resolved entries follow.
- compound: "Cc1ccc2c(Oc3ccccc3OCCn3ccc(=O)[nH]c3=O)cccc2c1 [14b]"
  reported.property: "CC50"
  units.label: "µM"
  meas.value: 40
- compound: "N#Cc1ccc2c(Oc3ccc(Cl)cc3OCCn3ccc(=O)[nH]c3=O)cc(Cl)cc2c1 [14h]"
  reported.property: "CC50"
  units.label: "µM"
  meas.value: 20
- compound: "N#Cc1ccc2c(Oc3ccc(Cl)cc3OCCn3ccc(=O)[nH]c3=O)cc(F)cc2c1 [14m]"
  reported.property: "CC50"
  units.label: "µM"
  meas.value: 18
- compound: "N#Cc1ccc2c(Oc3ccccc3OCCn3ccc(=O)[nH]c3=O)cc(Cl)cc2c1 [14f]"
  reported.property: "CC50"
  units.label: "µM"
  meas.value: 24
- compound: "N#C/C=C/c1cc(Cl)cc(Oc2ccccc2OCCn2ccc(=O)[nH]c2=O)c1"
  reported.property: "CC50"
  units.label: "µM"
  meas.value: 18

Could you now look at the following compound, please?
// N#Cc1ccc2c(Oc3ccc(F)cc3OCCn3ccc(=O)[nH]c3=O)cc(Cl)cc2c1 [14g] : CC50 value = 16

* * *

# assay.protocol: in vitro
# condition.details: human
The label Fulfilled is reserved for CC50 strictly under 20 µM; Not fulfilled covers values equal to or above it.

- compound: "Cc1cc(Oc2ccccc2OCCn2ccc(=O)[nH]c2=O)c2cc(C#N)cn2c1 [10c]"
  assigned.class: "Fulfilled"
- compound: "Cc1cc(Oc2ccccc2OCCn2ccc(=O)[nH]c2=O)c2cc(C#N)oc2c1 [12b]"
  assigned.class: "Not fulfilled"
- compound: "N#Cc1ccc2c(Oc3ccc(F)cc3OCCn3ccc(=O)[nH]c3=O)cc(F)cc2c1 [14l]"
  assigned.class: "Not fulfilled"
- compound: "N#Cc1cc2c(Oc3ccccc3OCCn3ccc(=O)[nH]c3=O)cc(Cl)cc2[nH]1"
  assigned.class: "Not fulfilled"
- compound: "O=c1ccn(CCOc2cc(Cl)ccc2Oc2cccc3ccoc23)c(=O)[nH]1 [13a]"
  assigned.class: "Not fulfilled"
- compound: "Cc1cc2c(Oc3ccc(Cl)cc3OCCn3ccc(=O)[nH]c3=O)cccc2o1 [12g]"
  assigned.class: "Fulfilled"

Is it true that CC50 reported for Cc1cc(Oc2ccc(F)cc2OCCn2ccc(=O)[nH]c2=O)c2cc(C#N)oc2c1 [12e] is less than 20 µM?
Not fulfilled

Identify whether the compound `Cc1cc(Oc2ccccc2OCCn2ccc(=O)[nH]c2=O)c2cc(C#N)[nH]c2c1` records CC50 below 20 µM.
Fulfilled

Could you please tell me whether CC50 recorded for `O=c1ccn(CCOc2cc(Cl)ccc2Oc2cccc3[nH]ccc23)c(=O)[nH]1` is less than 20 µM?
Fulfilled

* * *

# Tested on: human MT-2 T-cells
# condition.details: human
# CC50 values compiled below
Answer with a number only, understood to be in µM.

Solved cases below.
- compound: "N#Cc1cc2c(Oc3ccccc3OCCn3ccc(=O)[nH]c3=O)cc(F)cn2c1 [10d]"
  reported.property: "CC50"
  meas.value: 40
- compound: "N#Cc1cc2c(Oc3ccc(F)cc3OCCn3ccc(=O)[nH]c3=O)cc(Cl)cn2c1 [10i]"
  reported.property: "CC50"
  meas.value: 15

Could you now look at the following compound, please?
The compound identified as O=c1ccn(CCOc2ccccc2Oc2cccc3ccccc23)c(=O)[nH]1 [14a] registered its CC50 at 80
